These measurements were taken from patent US20240317752A1.

Let's look at some compounds and their measured GI50.
targetSystem: BaF3 BRAF-KIAA1549 fusion cells (Homo sapiens, UniProt P15056)
Construct: The BRAF-KIAA1549 fusion mutant was subcloned into pMXs-IRES-Blasticidin (RTV-016, Cell Biolabs, San Diego, CA); fused on or other part: Q9HCM3 (UPF0606 protein KIAA1549)
Sequence (P15056 whole entry, change not shown, the tested form may be a part): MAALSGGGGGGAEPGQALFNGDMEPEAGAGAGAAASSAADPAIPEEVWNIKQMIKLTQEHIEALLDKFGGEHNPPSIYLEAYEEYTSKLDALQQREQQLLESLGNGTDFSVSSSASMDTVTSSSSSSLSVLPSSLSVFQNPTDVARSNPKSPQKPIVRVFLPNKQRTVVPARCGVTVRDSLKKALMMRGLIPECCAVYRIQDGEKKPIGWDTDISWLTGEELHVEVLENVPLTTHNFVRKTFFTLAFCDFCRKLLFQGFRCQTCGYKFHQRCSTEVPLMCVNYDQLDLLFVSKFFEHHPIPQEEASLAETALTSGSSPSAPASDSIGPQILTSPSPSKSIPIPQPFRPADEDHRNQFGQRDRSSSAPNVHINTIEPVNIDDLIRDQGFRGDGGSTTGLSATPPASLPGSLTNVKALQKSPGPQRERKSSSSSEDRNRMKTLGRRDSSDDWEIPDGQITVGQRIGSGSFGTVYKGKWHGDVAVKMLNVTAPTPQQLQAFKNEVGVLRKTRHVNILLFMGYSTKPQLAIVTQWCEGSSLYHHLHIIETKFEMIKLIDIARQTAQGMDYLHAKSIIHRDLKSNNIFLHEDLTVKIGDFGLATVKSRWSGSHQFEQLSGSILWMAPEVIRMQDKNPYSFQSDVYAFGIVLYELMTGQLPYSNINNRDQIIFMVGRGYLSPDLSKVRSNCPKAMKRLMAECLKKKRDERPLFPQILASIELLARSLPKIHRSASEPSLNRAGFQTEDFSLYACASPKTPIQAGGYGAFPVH
experimentNotes: BaF3 BRAF-KIAA1549 fusion cell proliferation assay (CellTiterGlo)
Type: cell-based
testSettings: 96 hours incubation, potency code

{"compound": "Cc1ccc(NC(=O)c2ccc(Cl)c(OC(F)(F)F)c2)cc1Nc1ncccc1-c1ncnc2[nH]cnc12", "GI50": "0.02 to 0.1 µM"}
{"compound": "Cc1ccc(NC(=O)c2ccc(C(F)(F)F)c(C#N)c2)cc1Nc1ncccc1-c1ncnc2[nH]cnc12", "GI50": "< 0.02 µM"}
{"compound": "Cc1ccc(NC(=O)CN2CCCN(C)CC2)cc1Nc1ncccc1-c1ncnc2[nH]cnc12", "GI50": "≥ 0.5 µM"}
{"compound": "Cc1ccc(NC(=O)c2ccc(Cl)c(N(C)C)c2)cc1Nc1ncccc1-c1ncnc2[nH]cnc12", "GI50": "< 0.02 µM"}
{"compound": "Cc1ccc(NC(=O)CC2CCOC(C(F)(F)F)C2)cc1Nc1ncccc1-c1ncnc2[nH]cnc12 (centres unmarked)", "GI50": "0.02 to 0.1 µM"}

Below: the item to evaluate.
Entry Cc1ccc(NC(=O)C23CC(Cl)(C2)C3)cc1Nc1ncccc1-c1ncnc2[nH]cnc12 — recorded GI50 = ≥ 0.5 µM
